src = ChEMBL document CHEMBL5550134

# protocol-summary: Plasma protein binding in human
# Type: ADME, cell-free
# measurement-conditions: read-out: PPB (converted)
quantity: fraction unbound
Answers are plain numbers.

// CC(=O)N[C@@H](CCCNC(=N)N)C(=O)N[C@H]1CSSC[C@@H](C(N)=O)NC(=O)[C@H](Cc2c[nH]c3ccccc23)NC(=O)[C@H](CCCNC(=N)N)NC(=O)[C@@H](Cc2ccccc2)NC(=O)[C@H](Cc2c[nH]cn2)NC(=O)[C@@H](C)NC1=O [SETMELANOTIDE] : fraction unbound value = 0.209

* * *

# protocol-summary: Subcutaneous bioavailability in human
# measurement-conditions: in vivo, sc
quantity: subcutaneous bioavailability (%)
Give bare numbers, in %.

// NC(N)=NCCC[C@@H](N)C(=O)N[C@@H](CCCN=C(N)N)C(=O)N1CCC[C@H]1C(=O)N1C[C@H](O)C[C@H]1C(=O)NCC(=O)N[C@@H](Cc1cccs1)C(=O)N[C@@H](CO)C(=O)N1Cc2ccccc2C[C@@H]1C(=O)N1[C@H](C(=O)N[C@@H](CCCN=C(N)N)C(=O)O)C[C@@H]2CCCC[C@@H]21 : subcutaneous bioavailability value = 97
